# SYSTEM: Nanoluciferase-BRD9 fusion protein (3×FLAG-NLuc-BRD9) in SYO-1 cells (Homo sapiens, UniProt Q9H8M2)
# Construct: expressed in transfected cells; host or cells: SYO-1
# Sequence (Q9H8M2 whole entry, the tested form may be a part): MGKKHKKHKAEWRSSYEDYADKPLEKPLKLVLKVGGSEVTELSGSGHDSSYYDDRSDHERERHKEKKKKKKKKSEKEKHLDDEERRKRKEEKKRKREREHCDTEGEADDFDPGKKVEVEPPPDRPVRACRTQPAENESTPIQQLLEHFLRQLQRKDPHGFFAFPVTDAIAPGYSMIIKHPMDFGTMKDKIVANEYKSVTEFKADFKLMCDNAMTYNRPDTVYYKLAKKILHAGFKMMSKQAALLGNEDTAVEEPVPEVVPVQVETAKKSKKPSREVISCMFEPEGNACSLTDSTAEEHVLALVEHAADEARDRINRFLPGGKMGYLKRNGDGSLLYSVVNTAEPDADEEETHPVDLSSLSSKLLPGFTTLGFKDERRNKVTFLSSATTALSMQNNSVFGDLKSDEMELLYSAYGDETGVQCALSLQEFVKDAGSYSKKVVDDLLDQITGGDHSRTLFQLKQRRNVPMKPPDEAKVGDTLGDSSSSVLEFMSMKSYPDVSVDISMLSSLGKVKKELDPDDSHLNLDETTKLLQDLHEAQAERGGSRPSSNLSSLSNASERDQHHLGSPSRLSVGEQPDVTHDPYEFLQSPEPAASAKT
# EXPERIMENT_SUMMARY: SYO1 BRD9 NanoLuc degradation assay
# Assay type: cell-based
# RUN_CONDITIONS: 6 hours treatment, 1 μM top dose; read-out: SYO1 BRD9-NanoLuc degradation IC50
Measured DC50, listed per entry.
QUANTITY_KIND: DC50

[[record]]
compound = "COc1cc(-c2cn(C)c(=O)c3cc(C(=O)NC4CCN(CCCCCOc5cccc6c5C(=O)N(C5CCC(=O)NC5=O)C6=O)CC4(F)F)sc23)cc(OC)c1CN(C)C (stereo not drawn)"
measured_result = "< 10 nM"

[[record]]
compound = "Cn1cc(-c2ccc(OCC(=O)NCCCCCCCCNc3cccc4c3C(=O)N(C3CCC(=O)NC3=O)C4=O)c(C(F)(F)F)c2)c2sc(C(=N)NC3CCS(=O)(=O)CC3)cc2c1=O (stereo not drawn)"
measured_result = "< 10 nM"

[[record]]
compound = "COc1cc(-c2cn(C)c(=O)c3cc(NC(=O)[C@@H]4CCCN(C(=O)CCCCOc5cccc6c5C(=O)N(C5CCC(=O)NC5=O)C6=O)C4)sc23)cc(OC)c1CN(C)C (stereo partly drawn)"
measured_result = "> 100 nM"

[[record]]
compound = "COc1cc(-c2cn(C)c(=O)c3cc(C(=O)NC4CCN(C)CC4)sc23)cc(OC)c1CN(C)CC(=O)NCCOCCOc1cccc2c1C(=O)N(C1CCC(=O)NC1=O)C2=O (stereo not drawn)"
measured_result = "> 100 nM"

[[record]]
compound = "COc1cc(-c2cn(C)c(=O)c3cc(NC(=O)C4CCCN(C(=O)CCOCCOCCNc5cccc6c5C(=O)N(C5CCC(=O)NC5=O)C6=O)C4)sc23)cc(OC)c1CN(C)C (stereo not drawn)"
measured_result = "> 1000 nM"

[[record]]
compound = "COc1cc(-c2cn(C)c(=O)c3cc(C(=O)NC4CCN(CCCCCOc5cccc6c5C(=O)N(C5CCC(=O)NC5=O)C6=O)CC4)sc23)cc(OC)c1CN(C)C (stereo not drawn)"
measured_result = "> 1000 nM"

[[record]]
compound = "COc1cc(-c2cn(C)c(=O)c3cc(NC(=O)C4CCN(C(=O)CCCCOc5cccc6c5C(=O)N(C5CCC(=O)NC5=O)C6=O)CC4)sc23)cc(OC)c1CN(C)C (stereo not drawn)"
measured_result = "< 10 nM"

[[record]]
compound = "COc1cc(-c2cn(C)c(=O)c3cc(NC(=O)[C@H]4CCCN(C(=O)CCCCOc5cccc6c5C(=O)N(C5CCC(=O)NC5=O)C6=O)C4)sc23)cc(OC)c1CN(C)C (stereo partly drawn)"
measured_result = "> 100 nM"

[[record]]
compound = "COc1cc(-c2cn(C)c(=O)c3cc(NC(=O)C4CCN(CCCCCOc5cccc6c5C(=O)N(C5CCC(=O)NC5=O)C6=O)CC4)sc23)cc(OC)c1CN(C)C (stereo not drawn)"
measured_result = "> 1000 nM"

[[record]]
compound = "COc1cc(-c2cn(C)c(=O)c3cc(NC(=O)C4CCN(C(=O)CCOCCOCCNc5cccc6c5C(=O)N(C5CCC(=O)NC5=O)C6=O)CC4)sc23)cc(OC)c1CN(C)C (stereo not drawn)"
measured_result = "> 10 nM"

[[record]]
compound = "COc1cc(-c2cn(C)c(=O)c3cc(NC(=O)C4CCN(C)CC4)sc23)cc(OC)c1CN(C)CC(=O)NCCOCCOc1cccc2c1C(=O)N(C1CCC(=O)NC1=O)C2=O (stereo not drawn) [Compound D1]"
measured_result = "> 1000 nM"

[[record]]
compound = "COc1cc(-c2cn(C)c(=O)c3cc(C(=O)NC4CCN(C(=O)CCCCOc5cccc6c5C(=O)N(C5CCC(=O)NC5=O)C6=O)CC4)sc23)cc(OC)c1CN(C)C (stereo not drawn)"
measured_result = "< 10 nM"

[[record]]
compound = "COc1cc(-c2cn(C)c(=O)c3cc(NC(=O)C4CCCN(CCCCCOc5cccc6c5C(=O)N(C5CCC(=O)NC5=O)C6=O)C4)sc23)cc(OC)c1CN(C)C (stereo not drawn)"
measured_result = "> 1000 nM"

[[record]]
compound = "COc1cc(-c2cn(C)c(=O)c3cc(C(=O)NC4CCN(CCCCCOc5ccc6c(c5)C(=O)N(C5CCC(=O)NC5=O)C6=O)CC4(F)F)sc23)cc(OC)c1CN(C)C (stereo not drawn)"
measured_result = "< 10 nM"

[[record]]
compound = "COc1cc(-c2cn(C)c(=O)c3cc(C(=N)NC4CCS(=O)(=O)CC4)sc23)ccc1OCC(=O)NCCCCCCCCNc1cccc2c1CN(C1CCC(=O)NC1=O)C2=O (stereo not drawn) [Compound D2]"
measured_result = "> 10 nM"


---

# SYSTEM: Nanoluciferase-BRD9 fusion protein (3×FLAG-NLuc-BRD9) in SYO-1 cells (Homo sapiens)
# Construct: expressed in transfected cells; host or cells: SYO-1
# EXPERIMENT_SUMMARY: SYO1 BRD9 NanoLuc degradation assay
# Assay type: cell-based
# RUN_CONDITIONS: Table 6C; SYO-1 cells expressing 3×FLAG-NLuc-BRD9, 6 hours incubation, 1 μM top dose; read-out: SYO1 BRD9-NanoLuc degradation IC50
# Method: Procedure: A stable SYO-1 cell line expressing 3×FLAG-NLuc-BRD9 was generated. On day 0 cells were seeded in 30 μL media into each well of 384-well cell culture plates. The seeding density was 8000 cells/well. On day 1, cells were treated with 30 nL DMSO or 30 nL of 3-fold serially DMSO-diluted compounds (10 points in duplicates with 1 μM as final top dose). Subsequently plates were incubated for 6 hours in a standard tissue culture incubator and equilibrated at room temperature for 15 minutes. […]
QUANTITY_KIND: DC50

[[record]]
molecule = "COc1cc(-c2cn(C)c(=O)c3cc(C)sc23)cc(OC)c1CN1CCC2(CC1)CN(c1ccc3c(c1)C(=O)N(C1CCC(=O)NC1=O)C3)C2 (stereo not drawn)"
measured_result = "< 10 nM"

[[record]]
molecule = "COc1cc(-c2cn(C)c(=O)c3ccsc23)cc(OC)c1CN1CC(Oc2ccc3c(c2)C(=O)N(C2CCC(=O)NC2=O)C3)C1 (stereo not drawn)"
measured_result = "< 10 nM"

[[record]]
molecule = "COc1cc(-c2cn(C)c(=O)c3cc(C(=O)N[C@@H]4CCN(C5CCN(c6ccc7c(c6)C(=O)N(C6CCC(=O)NC6=O)C7)CC5)CC4(F)F)sc23)cc(OC)c1CN(C)C (stereo partly drawn)"
measured_result = "< 10 nM"

[[record]]
molecule = "COc1cc(-c2cn(C)c(=O)c3cc(C(=O)N[C@@H]4CCN(c5ccc6c(c5)CN(C5CCC(=O)NC5=O)C6=O)CC4(F)F)sc23)cc(OC)c1CN(C)C (stereo partly drawn)"
measured_result = "< 10 nM"

[[record]]
molecule = "COc1cc(OC)cc(-c2cn(C)c(=O)c3cc(C(=O)NC4CCN(c5cccc(OC6CCC(=O)NC6=O)c5)CC4)sc23)c1 (stereo not drawn)"
measured_result = "< 10 nM"

[[record]]
molecule = "COc1cc(-c2cn(C)c(=O)c3ccsc23)cc(OC)c1CN1CCN(c2ccc3c(c2)C(=O)N(C2CCC(=O)NC2=O)C3)CC1 (stereo not drawn)"
measured_result = "< 10 nM"

[[record]]
molecule = "COc1cc(-c2cn(C)c(=O)c3cc(C(=O)NC4CN(C5CCN(c6ccc7c(c6)C(=O)N(C6CCC(=O)NC6=O)C7)CC5)CC4(F)F)sc23)cc(OC)c1CN(C)C (stereo not drawn)"
measured_result = "< 10 nM"

[[record]]
molecule = "COc1cc(-c2cn(C)c(=O)c3ccsc23)cc(OC)c1CN1CCN(C(=O)c2csc(C(=O)c3c[nH]c4ccccc34)n2)CC1"
measured_result = "> 1000 nM"

[[record]]
molecule = "COc1cc(-c2cn(C)c(=O)c3cc(C(=O)Nc4cccc(OC5CCC(=O)NC5=O)c4)sc23)cc(OC)c1CN(C)C (stereo not drawn)"
measured_result = "> 100 nM"

[[record]]
molecule = "COc1cc(-c2cn(C)c(=O)c3cc(C(=O)NC4CN(c5ccc6c(c5)CN(C5CCC(=O)NC5=O)C6=O)CC4(F)F)sc23)cc(OC)c1CN(C)C (stereo not drawn)"
measured_result = "< 10 nM"

[[record]]
molecule = "COc1cc(-c2cn(C)c(=O)c3ccsc23)cc(OC)c1CN1CCC2(CC1)CN(c1ccc3c(c1)C(=O)N(C1CCC(=O)NC1=O)C3=O)C2 (stereo not drawn)"
measured_result = "< 10 nM"

[[record]]
molecule = "COc1cc(-c2cn(C)c(=O)c3cc(C(=O)NC4CCN(C(=O)c5csc(C(=O)c6c[nH]c7ccccc67)n5)CC4(F)F)sc23)cc(OC)c1CN(C)C (stereo not drawn)"
measured_result = "> 1000 nM"

